Listing of entries alongside the reported pest or weed control at 62.5 g/ha.
test system: ivy-leaved morning glory (Ipomoea hederacea); experiment: Test G Pre-Emergence Protocol; format: in vivo; settings: Ipomoea, pre-emergence, 312 h, 62.5 g ai/ha, evaluated after 13 days, 100=total damage to plant, 0=no damage to plant, read-out: plant damage rating, Morningglory, Ivy-leaved
Write the value in % as a bare number.

Previously resolved entries follow.
molecule | property-label | readout-value
CN1C[C@@H](c2ccc(C(F)(F)F)cc2)[C@H](C(=O)Nc2ccsc2)C1=O (racemic) | pest or weed control at 62.5 g/ha | 0
CN1C[C@@H](c2ccc(C(F)(F)F)cc2)[C@H](C(=O)Nc2ccccc2Cl)C1=O (racemic) | pest or weed control at 62.5 g/ha | 20
CN1C[C@H](c2ccc(C(F)F)cc2)[C@@H](C(=O)Nc2ccccc2F)C1=O (racemic) | pest or weed control at 62.5 g/ha | 10

Turning to the following molecule.
Asked: Which measured pest or weed control at 62.5 g/ha value corresponds to C=Cc1ccc([C@H]2CN(C)C(=O)[C@@H]2C(=O)Nc2ccccc2F)cc1 (racemic) ?
Given back: 0
